target: α-Glucosidase (yeast) (Saccharomyces cerevisiae, UniProt P53341); construct: purchased Sigma; experiment: Alpha-glucosidase (yeast) inhibition assay, pH 7.4; type: biochemical; conditions: 100 μM, pH 7.4; read-out: Percent inhibition of α-glucosidase (yeast)
Sequence (P53341 whole entry): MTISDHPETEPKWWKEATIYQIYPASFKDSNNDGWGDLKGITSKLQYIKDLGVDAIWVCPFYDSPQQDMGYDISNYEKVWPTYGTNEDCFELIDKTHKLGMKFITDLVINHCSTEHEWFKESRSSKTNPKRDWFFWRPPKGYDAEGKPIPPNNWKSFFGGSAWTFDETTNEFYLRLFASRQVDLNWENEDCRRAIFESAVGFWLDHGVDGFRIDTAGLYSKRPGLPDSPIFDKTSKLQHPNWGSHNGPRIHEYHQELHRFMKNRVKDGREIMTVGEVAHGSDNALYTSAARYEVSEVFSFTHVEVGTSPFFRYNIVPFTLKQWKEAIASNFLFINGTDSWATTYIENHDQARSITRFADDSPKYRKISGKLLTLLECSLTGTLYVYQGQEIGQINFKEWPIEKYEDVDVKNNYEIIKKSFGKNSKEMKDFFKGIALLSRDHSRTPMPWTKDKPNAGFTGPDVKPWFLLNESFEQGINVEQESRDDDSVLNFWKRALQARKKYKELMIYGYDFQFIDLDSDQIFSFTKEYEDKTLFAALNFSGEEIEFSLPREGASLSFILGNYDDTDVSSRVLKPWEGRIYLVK
# inhibition at 100 µM values compiled below
Express the result in % but write the number alone.

Task: Find the recorded inhibition at 100 µM belonging to CCCCN1[C@H](CO)[C@@H](O)[C@H](O)[C@H]1CSc1nnnn1C and report it.
Output: 15.6

Task: Could you do the same for CCCCN1[C@H](CN)[C@@H](O)[C@H](O)[C@H]1CO , please?
Output: 24.6

Task: Could you do the same for CCCCN1[C@H](CO)[C@@H](O)[C@H](O)[C@H]1CNC(C)=O , please?
Output: 27.1

Task: Could you do the same for CCCCN1[C@H](CO)[C@@H](O)[C@H](O)[C@H]1COC(=O)c1ccccc1 , please?
Output: 36.2

Task: Could you do the same for CCCCN(CCCC)C[C@@H]1[C@@H](O)[C@H](O)[C@@H](CO)N1CCCC , please?
Output: -12.6

====

# Percent inhibition of β-glucosidase (almond) values compiled below
Tested on: β-Glucosidase (almond)
Test: Beta-glucosidase (almond) inhibitor assay, pH 4.8
Type: biochemical
Conditions: 1000 μM
Procedure: Yeast alpha-glucosidase and almond beta-glucosidase activities were measured by a modification of the method of Evans, et al., Phytochemistry 22, 768-770 (1983). […] The release of p-nitrophenol from the substrate p-nitrophenylglycoside was measured spectrophotometrically in the presence and absence of test compound. […]
Express the result in % but write the number alone.

Task: Find the recorded Percent inhibition of β-glucosidase (almond) belonging to CCCCN1[C@H](CO)[C@@H](O)[C@H](O)[C@H]1COC(=O)c1ccccc1 and report it.
Output: 18.6

====

test system: β-Glucosidase (almond); assay: Beta-glucosidase (almond) inhibition assay, pH 7.4; type: biochemical; conditions: 1000 μM
reported-property: Percent inhibition of β-glucosidase (almond) (%)
Express the result in % but write the number alone.

In the examples that follow, each entry is paired with its recorded Percent inhibition of β-glucosidase (almond).
smiles_str=CCCCN1[C@H](CO)[C@@H](O)[C@H](O)[C@H]1CC#N test_value=-7.9
smiles_str=CCCCN1[C@H](CO)[C@@H](O)[C@H](O)[C@H]1COC(=O)c1ccccc1 test_value=13.2
smiles_str=OC[C@@H]1[C@@H](O)[C@H](O)[C@@H](Cl)CN1CCCc1ccccc1 test_value=92.5
smiles_str=CCCCN1[C@H](CO)[C@@H](O)[C@H](O)[C@H]1CN=[N+]=[N-] test_value=6.7

Task: Find the recorded Percent inhibition of β-glucosidase (almond) belonging to CCCCN1C[C@H](C#N)[C@@H](O)[C@H](O)[C@H]1CO and report it.
Output: -7.3

====

test system: β-Glucosidase (almond); experiment: Beta-glucosidase (almond) inhibitor assay, pH 4.8; type: biochemical; conditions: 100 μM
# Percent inhibition of β-glucosidase (almond) values compiled below
Express the result in % but write the number alone.

In the examples that follow, each entry is paired with its recorded Percent inhibition of β-glucosidase (almond).
smiles_str=OC[C@@H]1[C@@H](O)[C@H](O)[C@@H](Cl)CN1CCCc1ccccc1 unit_text=% test_value=47.6
smiles_str=CCCCN1[C@H](CO)[C@@H](O)[C@H](O)[C@H]1CC#N unit_text=% test_value=0.1
smiles_str=CCCCN1[C@H](CO)[C@@H](O)[C@H](O)[C@H]1COC(=O)c1ccccc1 unit_text=% test_value=1.8

Task: Find the recorded Percent inhibition of β-glucosidase (almond) belonging to CCCCN1[C@H](CO)[C@@H](O)[C@H](O)[C@H]1CN=[N+]=[N-] and report it.
Output: 11.2

Task: Could you do the same for CCCCN1[C@H](CO)[C@@H](O)[C@H](O)[C@H]1CNC(C)=O , please?
Output: 6

This collection of values is drawn from patent US5612480A.
